Reported thermal conductivity by item:
conditions: 333.15 K; 101.33 kPa; Liquid; Hot wire method
Hi! Could you send only the number? It should be in W/m/K, unit omitted.

## Input Reported thermal conductivity for CCCC[P+](CCCC)(CCCC)CCCC.C[C@@H](O)[C@H](N)C(=O)[O-] [tetrabutylphosphonium L-threoninate] : what is it?
## Output 0.152

## Input Reported thermal conductivity for CCCC[N+](C)(CCCC)CCCC.C[C@@H](O)[C@H](N)C(=O)[O-] [N,N-dibutyl-N-methyl-1-butanaminium L-threoninate] : what is it?
## Output 0.156

## Input Reported thermal conductivity for CCCC[P+](CCCC)(CCCC)CCCC.O=C([O-])[C@@H]1CCCN1 [tetrabutylphosphonium L-prolinate] : what is it?
## Output 0.15

## Input Reported thermal conductivity for CC(C)[C@H](N)C(=O)[O-].CCCC[P+](CCCC)(CCCC)CCCC [tetrabutylphosphonium L-valinate] : what is it?
## Output 0.155

## Input Reported thermal conductivity for CCCC[P+](CCCC)(CCCC)CCCC.N[C@@H](CS)C(=O)[O-] [tetrabutylphosphonium L-cysteinate] : what is it?
## Output 0.148

## Input Reported thermal conductivity for CCCC[P+](CCCC)(CCCC)CCCC.NCCCC[C@H](N)C(=O)[O-] [tetrabutylphosphonium L-lysinate] : what is it?
## Output 0.16

## Input Reported thermal conductivity for CCCC[N+](C)(CCCC)CCCC.NCCCC[C@H](N)C(=O)[O-] [N,N-dibutyl-N-methyl-1-butanaminium L-lysinate] : what is it?
## Output 0.167

## Input Reported thermal conductivity for CCCC[N+](C)(CCCC)CCCC.N[C@@H](CO)C(=O)[O-] [N,N-dibutyl-N-methylbutanaminium L-serinate] : what is it?
## Output 0.165

====

details: 293.15 K; 101.33 kPa; Liquid; Vibrating tube method
± gives the expanded uncertainty stated by the source.
Reported mass density by item:

{"columns": ["compound", "mass density"],
 "data": [
  ["CCCC[P+](CCCC)(CCCC)CCCC.N[C@@H](CS)C(=O)[O-] [tetrabutylphosphonium L-cysteinate]", "1037.2 ± 5.8 kg/m3"],
  ["CCCC[P+](CCCC)(CCCC)CCCC.NCCS(=O)(=O)[O-] [tetrabutylphosphonium 2-aminoethanesulfonate]", "1030.1 ± 5.7 kg/m3"],
  ["CCCC[N+](C)(CCCC)CCCC.N[C@@H](CO)C(=O)[O-] [N,N-dibutyl-N-methylbutanaminium L-serinate]", "1018.8 ± 5.6 kg/m3"]
]}

Please look at the following compound next.
## Input Reported mass density for CCCC[P+](CCCC)(CCCC)CCCC.C[C@@H](O)[C@H](N)C(=O)[O-] [tetrabutylphosphonium L-threoninate] : what is it?
## Output 983 ± 5.2 kg/m3

====

settings: 303.15 K; 101.33 kPa; Liquid; Vibrating tube method
Reported mass density by item:
Hi! Could you send only the number? It should be in kg/m3, unit omitted.

Study these solved cases before continuing.
{"columns": ["molecule", "value unit", "measured number"],
 "data": [
  ["CCCC[P+](CCCC)(CCCC)CCCC.O=C([O-])[C@@H]1CCCN1 [tetrabutylphosphonium L-prolinate]", "kg/m3", 989.1],
  ["CCCC[N+](C)(CCCC)CCCC.NCCCC[C@H](N)C(=O)[O-] [N,N-dibutyl-N-methyl-1-butanaminium L-lysinate]", "kg/m3", 976.7],
  ["CCCC[N+](C)(CCCC)CCCC.NCCS(=O)(=O)[O-] [N,N-dibutyl-N-methyl-1-butanaminium 2-aminoethanesulfonate]", "kg/m3", 1048.1]
]}

## Input Reported mass density for CCCC[P+](CCCC)(CCCC)CCCC.NCCS(=O)(=O)[O-] [tetrabutylphosphonium 2-aminoethanesulfonate] : what is it?
## Output 1023.7

## Input Reported mass density for CCCC[P+](CCCC)(CCCC)CCCC.C[C@@H](O)[C@H](N)C(=O)[O-] [tetrabutylphosphonium L-threoninate] : what is it?
## Output 976.9

## Input Reported mass density for CCCC[P+](CCCC)(CCCC)CCCC.N[C@@H](CS)C(=O)[O-] [tetrabutylphosphonium L-cysteinate] : what is it?
## Output 1030

## Input Reported mass density for CCCC[N+](C)(CCCC)CCCC.C[C@@H](O)[C@H](N)C(=O)[O-] [N,N-dibutyl-N-methyl-1-butanaminium L-threoninate] : what is it?
## Output 996.4
